B1: TPR t1 (parent)
chain: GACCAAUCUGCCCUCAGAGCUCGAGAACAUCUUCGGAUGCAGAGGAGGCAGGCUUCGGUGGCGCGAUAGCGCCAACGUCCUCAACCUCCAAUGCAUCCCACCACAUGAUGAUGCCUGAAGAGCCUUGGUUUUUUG

variants of: B1; experiment: polymerase ribozyme fitness, log enrichment relative to wild type (log ratio); higher = more active; in vitro selection for triplet polymerase activity
Each record gets a class by polymerase ribozyme fitness (log ratio): bin 1 = under -4, bin 2 = from -4 up to -2, bin 3 = -2 and over

Example results:
Entry sequence	Qualitative label
GACCAAUCUGCCCUCAGAGCUCGAGAACAUCUUCGGAUGCAGAGGAGGCAGGAAUCGGUGGCGCGAUAGCGCCAACGUCAUCAACCUCCAAUGCAUCCCACCACAUGAUGAUGACUGAAGAGCGAUGGUUUUUUG [C53A U54A C80A C114A C124G U125A]	bin 1
GACCAAUCUGCCCUCAGAGCUCGAGAACAUCUUCGGAUGUAGAGGAGGCAGUCUUCGGUGGCGCGAUAGCGCCAACGUCCUCAACCUACAAUGCAUCCCACCACAUGAUGAUGCCUGAAGAGCCUUGGUUUUUUG [C40U G52U C88A]	bin 3
GACCAAUCUGCCCUCAGAGCUCGAGAACAUCUUCGGAUGCAGAGGAGGCAGGCUUCGGUGGUGCGAUAGCGCCAACGUCCUCAACCUCCAAUGCAUCCCACCACAUGAUGAUGCCUUAAGAGCCUUGGUUUUUUG [C62U G117U]	bin 2
GACCAAUCUGCCCACAGAGCUCGAGAACAUCUUCGGAUGCAGAGGAGGCAGGCUUCGGUGGCGCGAUAGCGCCGACGUCCUCAACCUCCAAUGCAUCCCACCACAUGAUGAUGCCUUAAGAGCCUUGGUUUUUUG [U14A A74G G117U]	bin 1
GACCAAUCUGCCCUCAGAGCACGAGAACAUCUUCGGAUGCAGAGGAGGCAGACUUCGGUGGCGCGAUAGCGCCAACGUCCUCAACCUCUAAUGCAUCCCACCACAUGAUGAUGCCUGAAGAGCCUUGGUUUUUUG [U21A G52A C89U]	bin 3
GACCAAUCUGCCCUCAGAGCUCGAGAACAUCUUCGGAUGCAGAGGAGGCAGGCUUCGGUGGAGCGAUAGCGCCAACGUCCUCAACCUCCAAUGCAUCCUACCACAUGAUGAUGCCUGAAGAGCAUUGGUUUUUUG [C62A C99U C124A]	bin 1

**Q:** Class? Entry: GACCAAUCUGCCCUCAGAGCUCGAGAACAUCUUCGGAUGCAGAGGAGGCAGGCUUCGGUAGCGCGAUAGCGCCAACGUCCUCAACCUCCAAUGUAUCCCACCACAUGAUGAUGCCUGAAGAGCCUUGGUUUUUUG [G60A C94U]
**A:** bin 3
